assay: yeast display, Sf9 membrane polyspecificity reagent, FACS + sequencing; frameworks hold sequencing errors
measure_name: polyreactivity (PSR sort gate)

Worked examples, 4 sequences total:
primary_sequence: QVQLVESGGGLVQAGGSLRLSCAASGGIFRANALGWYRQAPGKERELVAAIRYSGGGTYYADSVKGRFTISRDNAKNTVYLQMNSLKPEDTAVYYCAARYRGRGYVAYDYWGQGTQVTVSS
measured_value: high polyreactivity
//
primary_sequence: QVQIVESGGGLVQAGGRLSLTCAASGRIFTAYAMRWYRPAPGKEREFVAAISARGGSTNYADSVKGRFTISRDNAMNTVYLQMNSLKPEDTAVYYCHARFVQWYWIGNVIHIDNDYWGQGSQVTVSS
measured_value: low polyreactivity
//
primary_sequence: QVQLVESGGGLVQAGGSLRLSCAASGSIFPWYAMGWYRQAPGKERELVAAISTGGSTYYADSVKGRFTISRDNAKNTVYLQMNSLKPEDTAVYYCAAAYGKYRFGYWGQGTQVTVSS
measured_value: high polyreactivity
//
primary_sequence: QVQLVESGGGLVQAGGSLRLSCAASGSTFWLYAMGWYRQAPGKERELVASISSRGGSTYYADSVKGRFTISRDNAKNTVYLQMNSLKPEDTAVYYCAAKDIRYDDDYWGQGTQVTVSS
measured_value: low polyreactivity

From here, focus on the item given below.
Using the record for `QVQLVESGGGLVQAGGSLRLSCADSGSIFDFNALGWYRQAPRKERELVAAITWSGGSTYYSDSVKGRFTISRDYAKNTVYLQMNSLKPEDTAVYYCAADSLYDDFYYWGQGTQVTVSS` , report its polyreactivity (PSR sort gate).
low polyreactivity
